Test system: TRPC4 beta (transient receptor potential cation channel C4), mouse
Experiment: TRPC4 cation channel opening, retest – cell-based, Fluo4 calcium, HEK293 TRPC4beta/mu-opioid, duplicates, 10 µM, confirmation (AID 2426)
Details: Fluo4 calcium fluorescence, at 10 µM
Active and inactive are the calls of the source.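 Rule for the calls: active = fluorescence ratio normalized to control raised more than 50% in primary screen plus both repeat runs; inactive = the rest.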
Assign a class; possible classes are t (active), f (inactive)

Some solved entries appear below for comparison.
# molecule, group_label
measured = [
    ("CCC1CCCCN1Cc1nc2c(c(=O)n(C)c(=O)n2C)n1Cc1ccccc1 (stereo unspecified)", "f"),
    ("Cc1ccc(NC(=O)c2cc(N3C(=O)C=CC3=O)ccc2N2CCOCC2)cc1Cl", "f"),
    ("COc1ccc2sc(N(CCCN(C)C)C(=O)c3ccc(S(=O)(=O)N4CCCc5ccccc54)cc3)nc2c1", "f"),
    ("N=c1oc2ccc(Cl)cc2cc1C(=O)NC1CCCCCC1", "f"),
    ("COc1ccc(/C=N/n2c(SC)nnc2-c2ccccc2)cc1C", "f"),
]

Dear colleague, could you share the recorded outcome for CC1CC(C)CN(CCCNC(=O)C2CCCN(c3ncnc4c3nc3n4CCCCC3)C2)C1 (stereo unspecified) when you have a moment?
f

Tell me the assay call for `CN(C)CCCN(C(=O)c1ccc(S(=O)(=O)N2CCc3ccccc32)cc1)c1nc2ccc(F)cc2s1` please.
t

Dear all, I need the recorded test outcome for `COCCNc1c2c(nc3ccccc13)CCC2` , thank you.
f

Tell me the recorded outcome of this test for `NC(=O)c1ccc(Oc2ccc3c(c2)CCC3)c([N+](=O)[O-])c1` .
f

Called result for `CCCSc1nc(N)nc(-c2cccs2)c1C#N`
f

How did this test come out for `CNc1nc(N2CCc3ccccc32)ncc1F` ?
f
